B1: library; a variant is named by its letters at X, in order (parent)
chain: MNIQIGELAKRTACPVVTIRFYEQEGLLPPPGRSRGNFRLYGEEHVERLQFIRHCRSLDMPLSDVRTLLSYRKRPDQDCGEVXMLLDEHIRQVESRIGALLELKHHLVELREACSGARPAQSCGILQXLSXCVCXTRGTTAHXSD

Variants of: B1
experimental protocol: sfGFP reporter fluorescence (15 h) (µM FITC); higher = stronger transcriptional activation
stated conditions: library round: Round 2; ligand: 30 µM Zn
Cut-off 0.7 on sfGFP reporter fluorescence, inclusive. At or above means Fulfilled; below means Not fulfilled.

>>> df
                         mutation_id  discrete_label
 0                             TGSPP   Not fulfilled
 1                       NICDP K104R   Not fulfilled
 2                 NGCDP I125V L129M   Not fulfilled
 3                             TGCDT   Not fulfilled
 4            NGDDP D64K K104V R111A       Fulfilled
 5              NTDAP M60L P61N D64K       Fulfilled
 6             NMDDP M60L D64T L107C       Fulfilled
 7                       NMDAP L107C       Fulfilled
 8                        NPDAP I90L   Not fulfilled
 9                 NIDAK L107C G124A       Fulfilled
10                 NMDDP L107C E109V       Fulfilled
11                             NGHAY       Fulfilled
12                             NGAPY       Fulfilled
13                             SGSPP   Not fulfilled
14            NGDDP P61N L107C C134I       Fulfilled
15                       TGDRP V108L   Not fulfilled
16                             NHDAW   Not fulfilled
17                       NGCDA L107C       Fulfilled
18                   TGDDP V82I L85K   Not fulfilled
19                             TGCAP   Not fulfilled
20                             NGSPA       Fulfilled
21                  NMDDP L85I K104V       Fulfilled
22                 NMDDP K104V L107S       Fulfilled
23                       TGSDY Q121A   Not fulfilled
24             NTDDP P61N D64K L107C       Fulfilled
25  NGDDP M60L P61N D64K K104V L107C       Fulfilled
26                             TGAPW   Not fulfilled
27                             TGAAP   Not fulfilled
28                        TGNDP I90L   Not fulfilled
29                 NGCDP V108I S115G   Not fulfilled
30                       TGDDT R111I   Not fulfilled
31              NGDDP P61E L62I D64K       Fulfilled
32                  NGCDP P61N H106A   Not fulfilled
33                       NGCDR K104R   Not fulfilled
34                             NEDAT   Not fulfilled
35                 NIDDP L107C G124A       Fulfilled
36                  NGCDP D64K E112H       Fulfilled
37       NGDDP P61N D64K K104M L107C       Fulfilled
38                 TGDDP K104R E112F   Not fulfilled
39                 NGTDP S115G V133P   Not fulfilled
40                  SGDDP I90L D145A   Not fulfilled
41       NIDDP M60L P61N K104V L107C       Fulfilled
42                       NGADY V133A       Fulfilled
43                       NGTYP V133P       Fulfilled
44                  NGDAP P61N V108E       Fulfilled
45                       NTDAP L107C       Fulfilled
46                       NADAP K104R       Fulfilled
47             NIDDP M60L D64K R111L       Fulfilled
48                       TIDSP L107C       Fulfilled
49                        NMDDA M60L       Fulfilled
50                 TGDDP V108L E112F   Not fulfilled
51                 NGDPP G124S I125L   Not fulfilled
52                        NTCDP M60L       Fulfilled
53                 NMDAP L101V K104V       Fulfilled
54       NMDDP M60L P61N K104V L107C       Fulfilled
55            NGDDP P61N L107C E109H       Fulfilled
56                       NGDAM Q121A       Fulfilled
57                             NGSPL       Fulfilled
58                       TGDDT R111V   Not fulfilled
59                   NICDP M60L D64K       Fulfilled
60                       NGYPP V108I       Fulfilled
61                 TGDDP L107I E112A   Not fulfilled
62                             NGCAL   Not fulfilled
63                 NGADP V133P C134V       Fulfilled
64             NGDAP P61N D64T E112I       Fulfilled
65                       NIEDP C134E       Fulfilled
66                 NMDAA K104R L107C       Fulfilled
67                        NIDSP M60L       Fulfilled
68             NGDDP P61E D64K E112H       Fulfilled
69           NIDDP H105E L107C C134E       Fulfilled
70                       TGADP V108L   Not fulfilled
71                  TGDDP D64T R111L       Fulfilled
72                       TGCDT L129I   Not fulfilled
73                       TGCAP Q121A   Not fulfilled
74                 NGDDR V108L T139A       Fulfilled
75                       NHDDA E109L   Not fulfilled
76                       NGDAY L110V   Not fulfilled
77                             SGDAA   Not fulfilled
78                  NIDDP D64K V108E       Fulfilled
79                   TIDDP P61N D64K       Fulfilled
80        NGDDP M60F P61N D64K K104V       Fulfilled
81                       NGDAR E112I   Not fulfilled
82                 NGDDR T136A T140A       Fulfilled
83                 NADPP V108L L129M       Fulfilled
84                       TGDDY E112I   Not fulfilled
85            TGDDP R96A K104V L107I   Not fulfilled
86                       NGAAF E112D       Fulfilled
87                        NGYAP S95G       Fulfilled
